target: NLRP3 (Homo sapiens, UniProt Q96P20); assay: THP-1 cells pyroptosis assay; format: cell-based; set-up: Seed THP-1 cells (25,000 cells/well) containing 1.0 μg/ml LPS; host or cells: THP-1 cells, LPS-primed, nigericin-stimulated; conditions: LPS 1.0 μg/ml, nigericin 5 μM, resazurin readout
Sequence (Q96P20 whole entry): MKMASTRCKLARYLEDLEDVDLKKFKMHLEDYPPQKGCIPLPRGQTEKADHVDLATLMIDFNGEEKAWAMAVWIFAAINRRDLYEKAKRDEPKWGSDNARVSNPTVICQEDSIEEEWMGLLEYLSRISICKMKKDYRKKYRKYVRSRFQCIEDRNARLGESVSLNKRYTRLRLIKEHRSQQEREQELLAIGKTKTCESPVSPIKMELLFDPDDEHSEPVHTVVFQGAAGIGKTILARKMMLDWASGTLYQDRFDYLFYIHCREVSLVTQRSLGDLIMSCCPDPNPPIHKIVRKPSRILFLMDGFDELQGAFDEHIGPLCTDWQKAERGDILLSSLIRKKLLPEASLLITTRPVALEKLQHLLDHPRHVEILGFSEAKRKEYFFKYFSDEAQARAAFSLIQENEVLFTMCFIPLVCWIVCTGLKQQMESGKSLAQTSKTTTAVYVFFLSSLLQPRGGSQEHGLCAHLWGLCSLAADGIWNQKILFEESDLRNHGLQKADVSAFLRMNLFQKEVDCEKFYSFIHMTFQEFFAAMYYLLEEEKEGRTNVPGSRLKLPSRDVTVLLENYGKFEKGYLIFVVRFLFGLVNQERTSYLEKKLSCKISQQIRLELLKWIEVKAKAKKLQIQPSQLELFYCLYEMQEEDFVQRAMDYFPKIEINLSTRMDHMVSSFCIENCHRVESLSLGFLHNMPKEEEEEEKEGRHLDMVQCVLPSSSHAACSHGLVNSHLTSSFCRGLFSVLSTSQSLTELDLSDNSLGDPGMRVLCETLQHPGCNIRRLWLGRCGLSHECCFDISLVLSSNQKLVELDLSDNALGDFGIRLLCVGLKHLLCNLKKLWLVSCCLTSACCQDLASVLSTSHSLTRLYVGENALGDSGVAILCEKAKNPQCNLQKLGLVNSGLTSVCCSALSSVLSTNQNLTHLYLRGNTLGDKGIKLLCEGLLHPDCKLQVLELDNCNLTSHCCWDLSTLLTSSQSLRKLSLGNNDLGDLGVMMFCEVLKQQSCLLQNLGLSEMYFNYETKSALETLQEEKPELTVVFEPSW
Entries whose IC50 is below 30 nM take fulfilled; entries at or above 30 nM take not fulfilled.

Q: IC50 under 30 nM? Item: Cc1cc(C#N)cc(O)c1-c1cc(F)c2oc(N[C@@H]3CCCN(CCO)C3)nc2n1 [Example 29]
Result: fulfilled

Q: IC50 under 30 nM? Item: Cc1cc(C#N)cc(O)c1-c1ccc2oc(N[C@H]3CNC[C@@H](O)C3)nc2n1 [Example 9]
Result: not fulfilled

Q: IC50 under 30 nM? Item: CCN1C[C@@H](O)C[C@@H](Nc2nc3nc(-c4c(C)cc(C#N)cc4O)cnc3o2)C1 [Example 17]
Result: fulfilled

Q: IC50 under 30 nM? Item: Cc1cc2c(c(O)c1-c1cnc3oc(N[C@@H]4CCCN(CCO)C4)nc3n1)CCO2 [Example 13]
Result: fulfilled

Q: IC50 under 30 nM? Item: COCc1cc(C#N)cc(O)c1-c1ccc2oc(N[C@@H]3CCCN(CCO)C3)nc2n1 [Example 3]
Result: fulfilled

Q: IC50 under 30 nM? Item: COc1cc(-c2c(C)cc3c(c2O)CCO3)nc2nc(N[C@@H]3CCCN(CCO)C3)oc12 [Example 22]
Result: fulfilled

Q: IC50 under 30 nM? Item: COCc1cc2c(c(O)c1-c1ccc3oc(N[C@@H]4CCCN(CCO)C4)nc3n1)CCO2 [Example 12]
Result: fulfilled

Q: IC50 under 30 nM? Item: COCc1cc(C#N)cc(O)c1-c1cc(OC)c2oc(N[C@@H]3CCCN(CCO)C3)nc2n1 [Example 20]
Result: not fulfilled

---

target: NLRP3 (Homo sapiens); assay: Human whole blood IL-1β release assay; assay type: cell-based; parameters: Human whole blood in Li-heparin tubes was obtained from healthy donors; from tissue; host or cells: human whole blood from healthy donors; details: LPS, nigericin 10 μM, IL-1β by AlphaLisa
Entries whose IC50 is below 0.02 µM take t; entries at or above 0.02 µM take f.

>>> classification("CCN1C[C@@H](O)C[C@@H](Nc2nc3nc(-c4c(O)cc(C#N)cc4COC)cnc3o2)C1")
"f"
>>> classification("COCc1cc2c(c(O)c1-c1ccc3oc(N[C@@H]4CCCN(CCO)C4)nc3n1)CCO2")
"t"

Please turn your attention to the following entry.
Q: IC50 under 0.02 µM? Item: `Cc1cc2c(c(O)c1-c1cnc3oc(N[C@@H]4CCCN(CCO)C4)nc3n1)CCO2`
Result: t

---

target: NLRP3 (Homo sapiens); assay: THP-1 cells pyroptosis assay; type: cell-based; set-up: Seed THP-1 cells (25,000 cells/well) containing 1.0 μg/ml LPS; host or cells: THP-1 cells, LPS-primed, nigericin-stimulated; conditions: LPS 1.0 μg/ml, nigericin 5 μM, resazurin readout
value kind: log10 IC50 (log10 of the value in nM)
Scale: decimal log of IC50, IC50 in nM.

Below: 6 compounds and their reported log10 IC50.
>>> reported_result("Cc1cc(C(F)(F)F)cc(O)c1-c1ccc2oc(N[C@@H]3C[C@H](O)CN(CCO)C3)nc2n1")
1.08
>>> reported_result("CCN1C[C@@H](O)C[C@@H](Nc2nc3nc(-c4c(C)cc(C#N)cc4O)cc(OC)c3o2)C1")
1.11
>>> reported_result("COCc1cc(C#N)cc(O)c1-c1cnc2oc(N[C@@H]3CCCN(CCO)C3)nc2n1")
1.53
>>> reported_result("Cc1cc(C#N)cc(O)c1-c1cnc2oc(N[C@@H]3CCCN(CCO)C3)nc2n1 [Example 1]")
0.52
>>> reported_result("COCc1cc2c(c(O)c1-c1cc(OC)c3oc(N[C@@H]4CCCN(CCO)C4)nc3n1)CCO2")
0.95
>>> reported_result("CCN1C[C@@H](O)C[C@@H](Nc2nc3nc(-c4c(C)cc(C#N)cc4O)cnc3o2)C1 [Example 2]")
0.63

Q: What measured log10 IC50 goes with `CCN1C[C@@H](O)C[C@@H](Nc2nc3nc(-c4c(O)cc(C#N)cc4COC)cnc3o2)C1` ?
Result: 1.64

Q: What measured log10 IC50 goes with `Cc1cc2c(c(O)c1-c1cnc3oc(N[C@@H]4CCCN(CCO)C4)nc3n1)CCC2` ?
Result: 0.30

---

molecular target: NLRP3 (Homo sapiens, UniProt Q96P20); assay: THP-1 cells pyroptosis assay; format: cell-based; design: Seed THP-1 cells (25,000 cells/well) containing 1.0 μg/ml LPS; host or cells: THP-1 cells, LPS-primed, nigericin-stimulated; conditions: LPS 1.0 μg/ml, nigericin 5 μM, resazurin readout
Reported IC50 values for a set of compounds
Write the figure, then the unit, nothing else.

Below: 3 compounds and their reported IC50.
>>> reported_result("Cc1cc(C#N)cc(O)c1-c1cnc2oc(N[C@@H]3C[C@H](O)CN(C)C3)nc2n1")
"10 nM"
>>> reported_result("COCc1cc2c(c(O)c1-c1cnc3oc(N[C@@H]4CCCN(CCO)C4)nc3n1)CCO2")
"4 nM"
>>> reported_result("COc1cc(-c2c(C)cc3c(c2O)CCC3)nc2nc(N[C@@H]3CCCN(CCO)C3)oc12")
"4 nM"

Q: Hello, I am looking for reported IC50 with NLRP3 (Homo sapiens, UniProt Q96P20) for `Cc1cc2c(c(O)c1-c1ccc3oc(N[C@@H]4CCCN(CCO)C4)nc3n1)CCO2` . Could you help?
Result: 0.6 nM

---

Reported pIC50 values for a set of compounds
molecular target: NLRP3 (Homo sapiens); test: THP-1 cells pyroptosis assay; format: cell-based; set-up: Seed THP-1 cells (25,000 cells/well) containing 1.0 μg/ml LPS; host or cells: THP-1 cells, LPS-primed, nigericin-stimulated; details: LPS 1.0 μg/ml, nigericin 5 μM, resazurin readout
Give only the number. pIC50 is defined as minus log10 of concentration in molar units.

Q: Hello, I am looking for reported pIC50 with NLRP3 (Homo sapiens) for COc1cc(-c2c(C)cc(C#N)cc2O)nc2nc(N[C@@H]3CCCN(CCO)C3)oc12 [Example 8] . Could you help?
Result: 7.96

Q: Hello, I am looking for reported pIC50 with NLRP3 (Homo sapiens) for `Cc1cc(C#N)cc(O)c1-c1ccc2oc(N[C@@H]3CCCN(CCCc4ncco4)C3)nc2n1` . Could you help?
Result: 7.64

Q: Hello, I am looking for reported pIC50 with NLRP3 (Homo sapiens) for `Cc1cc2c(c(O)c1-c1cnc3oc(N[C@@H]4C[C@H](O)CN(CCO)C4)nc3n1)CCO2` . Could you help?
Result: 7.72

---

target: NLRP3 (Homo sapiens, UniProt Q96P20); assay: Human whole blood IL-1β release assay; type: cell-based; design: Human whole blood in Li-heparin tubes was obtained from healthy donors; from tissue; host or cells: human whole blood from healthy donors; conditions: LPS, nigericin 10 μM, IL-1β by AlphaLisa
value kind: pIC50
Give only the number. pIC50 is defined as minus log10 of concentration in molar units.

Below: 2 compounds and their reported pIC50.
>>> reported_result("COc1cc(-c2c(C)cc(C#N)cc2O)nc2nc(N[C@@H]3CCCN(CCO)C3)oc12 [Example 8]")
7.55
>>> reported_result("CCN1C[C@@H](O)C[C@@H](Nc2nc3nc(-c4c(C)cc(C#N)cc4O)cnc3o2)C1 [Example 17]")
7.74

Q: Hello, I am looking for reported pIC50 with NLRP3 (Homo sapiens, UniProt Q96P20) for Cc1cc(C#N)cc(O)c1-c1cnc2oc(N[C@@H]3CCCN(CCO)C3)nc2n1 [Example 1] . Could you help?
Result: 7.62

Q: Hello, I am looking for reported pIC50 with NLRP3 (Homo sapiens, UniProt Q96P20) for `COCc1cc2c(c(O)c1-c1cnc3oc(N[C@@H]4CCCN(CCO)C4)nc3n1)CCO2` . Could you help?
Result: 8.10

Q: Hello, I am looking for reported pIC50 with NLRP3 (Homo sapiens, UniProt Q96P20) for COc1cc(-c2c(C)cc(C#N)cc2O)nc2nc(N[C@@H]3CCCN(CCO)C3)oc12 [Example 16] . Could you help?
Result: 7.66

---

molecular target: UniProtKB Q96P20; assay: THP-1 cells pyroptosis assay; format: cell-based; design: Seed THP-1 cells (25,000 cells/well) containing 1.0 μg/ml LPS; host or cells: THP-1 cells, LPS-primed, nigericin-stimulated; conditions: LPS 1.0 μg/ml, nigericin 5 μM, resazurin readout
value kind: pIC50
Give only the number. pIC50 is defined as minus log10 of concentration in molar units.

>>> reported_result("CCN1C[C@@H](O)C[C@@H](Nc2nc3nc(-c4c(C)cc(C#N)cc4O)cc(F)c3o2)C1")
8.22

Q: Hello, I am looking for reported pIC50 with UniProtKB Q96P20 for `CCN1C[C@@H](O)C[C@@H](Nc2nc3nc(-c4c(C)cc5c(c4O)CCO5)cnc3o2)C1` . Could you help?
Result: 8.70

Q: Hello, I am looking for reported pIC50 with UniProtKB Q96P20 for `Cc1cc(C#N)cc(O)c1-c1ccc2oc(N[C@@H]3CCCN(CCc4ncco4)C3)nc2n1` . Could you help?
Result: 7.58

Q: Hello, I am looking for reported pIC50 with UniProtKB Q96P20 for COc1cc(-c2c(C)cc(C#N)cc2O)nc2nc(N[C@@H]3CCCN(CCO)C3)oc12 [Example 16] . Could you help?
Result: 8.10

Q: Hello, I am looking for reported pIC50 with UniProtKB Q96P20 for Cc1cc(C#N)cc(O)c1-c1cnc2oc(N[C@@H]3CCCN(CCO)C3)nc2n1 [Example 10] . Could you help?
Result: 8.30

Q: Hello, I am looking for reported pIC50 with UniProtKB Q96P20 for `Cc1cc(C(F)(F)F)cc(O)c1-c1ccc2oc(N[C@@H]3C[C@H](O)CN(CCCC(=O)O)C3)nc2n1` . Could you help?
Result: 7.29
